target: Bcat-Halo (UniProt P35222); test: NanoBRET Abs IC50, HEK293 cells; Bcat-Halo / TCF4-Luc engagement
Sequence (P35222 whole entry): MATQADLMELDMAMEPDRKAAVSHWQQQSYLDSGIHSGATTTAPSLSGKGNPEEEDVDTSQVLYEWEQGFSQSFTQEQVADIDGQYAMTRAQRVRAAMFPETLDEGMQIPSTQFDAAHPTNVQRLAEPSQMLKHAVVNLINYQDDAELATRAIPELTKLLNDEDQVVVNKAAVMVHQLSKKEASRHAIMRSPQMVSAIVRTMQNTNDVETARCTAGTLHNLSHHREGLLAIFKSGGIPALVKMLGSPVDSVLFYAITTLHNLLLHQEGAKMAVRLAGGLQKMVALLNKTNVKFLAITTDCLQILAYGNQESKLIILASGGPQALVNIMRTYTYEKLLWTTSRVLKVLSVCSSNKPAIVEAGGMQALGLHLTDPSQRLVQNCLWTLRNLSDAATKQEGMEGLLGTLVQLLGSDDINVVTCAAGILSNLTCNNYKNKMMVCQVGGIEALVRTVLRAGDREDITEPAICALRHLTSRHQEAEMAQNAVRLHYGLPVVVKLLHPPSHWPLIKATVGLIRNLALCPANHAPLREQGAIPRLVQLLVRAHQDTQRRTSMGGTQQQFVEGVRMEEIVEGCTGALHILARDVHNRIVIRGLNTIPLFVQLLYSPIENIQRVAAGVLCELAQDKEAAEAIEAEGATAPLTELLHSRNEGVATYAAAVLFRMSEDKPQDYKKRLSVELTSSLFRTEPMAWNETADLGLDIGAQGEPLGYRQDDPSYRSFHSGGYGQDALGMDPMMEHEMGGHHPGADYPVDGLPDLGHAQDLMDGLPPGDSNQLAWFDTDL
pIC50: −log10 of the molar value. Starred links: 1 amine or outer side, 2 acyl side, 3 side chain; linkers in the order of their positions; H or OH if unused. Positions of bridges follow the written chain, without caps; N, C: chain ends. Non-standard residues stand in square brackets, D forms with d. Primed or numbered codes have the meaning given here. PyrS2″ = (S)-3-amino-1-((pent-4-en-1-yloxy)carbonyl)pyrrolidine-3-carboxylic acid (stapling residue), C=CCCCOC(=O)N1CC[C@@](N[*:1])(C(=O)[*:2])C1; B5(5) = 2,2-bis(4-pentenyl)glycine, 2-amino-2-(pent-4-en-1-yl)hept-6-enoic acid (stitching residue), C=CCCCC(CCCC=C)(N[*:1])C(=O)[*:2]; PyrS2 = (S)-3-amino-1-((pent-4-en-1-yloxy)carbonyl)pyrrolidine-3-carboxylic acid, C=CCCCOC(=O)N1CC[C@@](N[*:1])(C(=O)[*:2])C1; Phe(3-COOH) = N[C@@H](Cc1cccc(C(=O)O)c1)C(=O)O; Phe(2-CF3) = N[C@@H](Cc1ccccc1C(F)(F)F)C(=O)O; Bta = N[C@@H](Cc1csc2ccccc12)C(=O)O; αAllylPro = C=CC[C@@]1(C(=O)O)CCCN1; tBuAla = CC(C)(C)C[C@H](N)C(=O)O; Nle = CCCC[C@H](N)C(=O)O
test-readout: pIC50

Asked: Quick one: pIC50 of Ac-[αAllylPro]D[tBuAla][B5(5)]D[Phe(3-COOH)]AAFL[PyrS2″][Phe(2-CF3)][Bta]QLS-NH2 (staple 1-4, 4-11) [I-2384] ?
Given back: 5.34

I: Ac-[αAllylPro]D[tBuAla][B5(5)]D[Phe(3-COOH)]AAFL[PyrS2″][Phe(2-CF3)][Bta]QLT-NH2 (staple 1-4, 4-11) [I-2383]
II: Ac-[αAllylPro]D[tBuAla][B5(5)]D[Phe(3-COOH)]AAFL[PyrS2][Phe(2-CF3)][Bta]QLN-NH2 (staple 1-4, 4-11) [I-2390]
Asked: In the pair I and II , the larger recorded pIC50 belongs to which? // caller expects the label of the chosen entry
Given back: I

A: Ac-[αAllylPro]D[tBuAla][B5(5)]D[Phe(3-COOH)]AAFL[PyrS2][Phe(2-CF3)][Bta]QL[Nle]-NH2 (staple 1-4, 4-11) [I-2391]
B: Ac-[αAllylPro]D[tBuAla][B5(5)]D[Phe(3-COOH)]AAFL[PyrS2″][Phe(2-CF3)][Bta]QLL-NH2 (staple 1-4, 4-11) [I-2380]
Asked: In the pair A and B , the larger recorded pIC50 belongs to which? // caller expects the label of the chosen entry
Given back: B
